Provenance of the data: patent US20060058231A1

Assay system: T1, ActRIIa receptor-Fc fusion (UniProt P27037 20-134, limits assumed)
T1 construct: BMP receptor-Fc fusion, detected with anti-human IgG-HRP
T1 sequence (P27037 20-134 limits assumed): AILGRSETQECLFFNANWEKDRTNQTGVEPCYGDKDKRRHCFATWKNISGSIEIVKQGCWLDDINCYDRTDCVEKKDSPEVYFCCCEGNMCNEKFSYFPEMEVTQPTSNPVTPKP
Assay explanation: ELISA-like, fixed volume of conditioned media, receptor-Fc
Quantity name: ActRIIa binding relative to wild type

### Prompt Report ActRIIa binding relative to wild type, nothing else, for this binder: BMP-7 variant R134P (ligand) STGGKQRSQNRSKTPKNQEALRMASVAENSSSDQRQACKKHELYVSFRDLGWQDWIIAPEGYAAYYCEGECAFPLNSYMNATNHAIVQTLVHFINPETVPKPCCAPTQLNAISVLYFDDSSNVILKKYRNMVVPACGCH
### Response 0.89 relative to wt = 1.0

### Prompt Report ActRIIa binding relative to wild type, nothing else, for this binder: BMP-7 variant R134S (ligand) STGGKQRSQNRSKTPKNQEALRMASVAENSSSDQRQACKKHELYVSFRDLGWQDWIIAPEGYAAYYCEGECAFPLNSYMNATNHAIVQTLVHFINPETVPKPCCAPTQLNAISVLYFDDSSNVILKKYRNMVVSACGCH
### Response 1.17 relative to wt = 1.0

### Prompt Report ActRIIa binding relative to wild type, nothing else, for this binder: BMP-7 variant E60S (ligand) STGGKQRSQNRSKTPKNQEALRMASVAENSSSDQRQACKKHELYVSFRDLGWQDWIIAPSGYAAYYCEGECAFPLNSYMNATNHAIVQTLVHFINPETVPKPCCAPTQLNAISVLYFDDSSNVILKKYRNMVVRACGCH
### Response 1.02 relative to wt = 1.0
